- protocol_text: Lysa solubility
- Type: physicochemical
- test_parameters: phosphate buffer, pH 6.5, aqueous buffer, thermodynamic from solid, 0.05 M phosphate buffer (pH 6.5)
reported_endpoint: solubility thermodynamic

Return reported solubility thermodynamic; argument: `COC(=O)C1=C(CN2CCN3C(=O)N(CC(C)(C)C(=O)O)C[C@@H]3C2)NC(c2nccs2)=N[C@H]1c1ccccc1Cl` > 716 µg/mL

Consider the compound `CCOC(=O)C1=C(CN2CCN3C(=O)N(CC(C)(C)C(=O)O)C[C@@H]3C2)NC(c2nccs2)=N[C@H]1c1cccc(F)c1Cl` and give its measured solubility thermodynamic. > 727 µg/mL

Recorded solubility thermodynamic for CCOC(=O)C1=C(CN2CCN3C(=O)N(CCOCC(=O)O)CC3C2)NC(c2nccs2)=N[C@H]1c1cccc(F)c1Cl (stereo partly drawn) , please? > 794 µg/mL
